- assayed_target: bdSUMO Mut12-MBP fusion protein

[
  {
    "protein": "hsSENP2 (protein) EFPEITEEMEKEIKNVFRNGNQDEVLSEAFRLTITRKDIQTLNHLNWLNDEIINFYMNMLMERSKEKGLPSVHAFNTFFFTKLKTAGYQAVKRWTKKVDVFSVDILLVPIHLGVHWCLAVVDFRKKNITYYDSMGGINNEACRILLQYLKQESIDKKRKEFDTNGWQLFSKKSQEIPQQMNGSDCGMFACKYADCITKDRPINFTQQHMPYFRKRMVWEILHRKLL",
    "cleavage of the SUMO fusion protein": "resistant"
  },
  {
    "protein": "bdSENP1^Muti (protein) PFVPLTDEDEDNVRHALGGRKKSETLSVHEASHIVITREILQCLNDKEWLNDEVINLYLELLKERELREPNKFLKCHFFNTFFYKKLINGGYDYKSVREWTTRRKLGYNLIDCDKIFVPIHKDVHWCLAVINIKEKKFQYLDSLGYMDMKALRILAKYLVDEVKDKSGKQIDVHAWKQEGVQNLPLQENGWDCGMFMLKYIDFYSRDMELVFGQKHMSYFRRRTAKEILDLKAG",
    "cleavage of the SUMO fusion protein": "< 50 % cleavage"
  },
  {
    "protein": "SUMOstar protease (protein) LVPELNEKDDDQVQKALASRENTQLMNRDNIEITVRDFKTLAPRRWLNSGIISFFMKYIEKSTPNTVAFNSFFYTNLSERGYQGVRRWMKRKKTQIDKLDKIFTPINLNQSHWALGIIDLKKKTIGYVDSLSNGPNAMSFAILTDLQKYVMEESKHTIGEDFDLIHLDCPQQPNGYDCGIYVCMNTLYGSADAPLDFDYKDAIRMRRFIAHLILTDALK",
    "cleavage of the SUMO fusion protein": "resistant"
  }
]
